# methodNotes: Toxicity liver stage against HepG2, at 10uM
# Assay type: cell-based
# Design: test concentration 10 uM, cell line HepG2-A16-CD81EGFP
# experimentalContext: human, HepG2-A16-CD81EGFP cells; read-out: INHIBITION
measuredMetric: cytotoxicity at 10 µM (%)
Answer in %, number only, no unit symbol.

[in] Name the recorded cytotoxicity at 10 µM of the item NC(=O)CN(CC(=O)NCc1cccc(Cl)c1)C1CCCC1 in your answer.
[out] -0.979

[in] Name the recorded cytotoxicity at 10 µM of the item Cn1cc(-c2ncc3c(c2C(=O)O)CCN(CC2CCOC2)C3)cn1 (stereo unspecified) in your answer.
[out] -94.6

[in] Name the recorded cytotoxicity at 10 µM of the item COc1ccccc1-c1cc(NC(=O)CCC2CCCO2)[nH]n1 (stereo unspecified) in your answer.
[out] -0.394

[in] Name the recorded cytotoxicity at 10 µM of the item CC1=CCN(C(=O)Nc2ccccc2N2CCOC2=O)CC1 in your answer.
[out] -0.724

[in] Name the recorded cytotoxicity at 10 µM of the item O=C(NCc1ccccc1-n1cccn1)C1CC2(CCNCC2)CN1 (stereo unspecified) in your answer.
[out] -0.413

[in] Name the recorded cytotoxicity at 10 µM of the item CCCn1nccc1NC(=O)CN1CCCC1c1cccn1C (stereo unspecified) in your answer.
[out] -5.76

[in] Name the recorded cytotoxicity at 10 µM of the item Cc1ccc(N2CCCC(NCc3sccc3C)C2)nn1 (stereo unspecified) in your answer.
[out] -3.8

[in] Name the recorded cytotoxicity at 10 µM of the item CS(=O)(=O)Cc1nc(CN2CCC(C(F)(F)F)CC2)cs1 in your answer.
[out] -10.9

[in] Name the recorded cytotoxicity at 10 µM of the item CC1CCC(NS(=O)(=O)CC(=O)Nc2ccccc2N2CCCC2)CC1 (stereo unspecified) in your answer.
[out] 3.75

[in] Name the recorded cytotoxicity at 10 µM of the item O=C(c1ccoc1)N1CCC2(CC1)COC(COc1ccccn1)C2 (stereo unspecified) in your answer.
[out] -123

[in] Name the recorded cytotoxicity at 10 µM of the item COc1ccsc1C(=O)NC1CCN(c2cccc(F)c2)CC1 in your answer.
[out] 18.3

[in] Name the recorded cytotoxicity at 10 µM of the item O=C([C@@H]1COC[C@H]2CN(c3ccncn3)C[C@H]21)N1CCCCO1 in your answer.
[out] -132

[in] Name the recorded cytotoxicity at 10 µM of the item O=C(NCCCn1ccnc1)N1CCN(c2cccs2)CC1 in your answer.
[out] -2.53

[in] Name the recorded cytotoxicity at 10 µM of the item CCN1CCN(c2ccc(CNC(=O)Cc3c(C)noc3C)cn2)CC1 in your answer.
[out] -12.2

[in] Name the recorded cytotoxicity at 10 µM of the item O=C(CCSc1ccccc1F)N1CCN(c2cnccn2)CC1 in your answer.
[out] -51.7

[in] Name the recorded cytotoxicity at 10 µM of the item Cn1cnc2c1C(COCC1CCOCC1)CN(C1CCOCC1)C2 (stereo unspecified) in your answer.
[out] -4.22

[in] Name the recorded cytotoxicity at 10 µM of the item O=C1NCCN1C1CCN(Cc2ccccn2)CC1 in your answer.
[out] 4.08

[in] Name the recorded cytotoxicity at 10 µM of the item CC(C)C(O)CNC(=O)Nc1cnn(Cc2ccccc2)c1 (stereo unspecified) in your answer.
[out] 6.61

[in] Name the recorded cytotoxicity at 10 µM of the item Cc1nn(C)cc1-c1cc(C(=O)NCC(C)(C)c2cccc(F)c2)n[nH]1 in your answer.
[out] 0.68

[in] Name the recorded cytotoxicity at 10 µM of the item N#CCCNC(=O)CSc1ccc(F)cc1F in your answer.
[out] 3.94

[in] Name the recorded cytotoxicity at 10 µM of the item COCCN(Cc1ccc(F)cc1Cl)C(=O)c1ccccn1 in your answer.
[out] 11.8

[in] Name the recorded cytotoxicity at 10 µM of the item COc1ccccc1C(=O)NCCCN1CCCC1C(=O)N(C)C (stereo unspecified) in your answer.
[out] -2.94

[in] Name the recorded cytotoxicity at 10 µM of the item Cc1ccc(CN2CCn3c(C(=O)N(C)C)cnc3C2)cc1 in your answer.
[out] -68.9

[in] Name the recorded cytotoxicity at 10 µM of the item Cc1ccc(C(=O)NCCNC(=O)c2cncnc2C(C)C)cc1F in your answer.
[out] 9.52

[in] Name the recorded cytotoxicity at 10 µM of the item C/C(NC(=O)c1ccccn1)=C1\C(=O)C[C@@H]2[C@H]1C2(C)C in your answer.
[out] 7.66

[in] Name the recorded cytotoxicity at 10 µM of the item COc1ccc(-c2ccoc2)cc1CNC1CCCC1 in your answer.
[out] -3.45
